Test system: SN12C
Experiment: NCI tumour cell line growth inhibition, 48 h
Calls of active or inactive are those of the source. Cut-off read from the data, not from the text of the source: active = GI50 up to about 1.1 µM and inactive = higher. Residues, ends and D or L forms follow the SMILES beside them. *: point of attachment. Boc = CC(C)(C)OC(=O)*
Below is a list of entries, each paired with its recorded GI50 value.

Some entries whose results are on file:
compound=[N-]=[N+]=Nc1cc(=O)[nH]nc1-c1ccccc1 assay_result="> 100 µM (inactive)"
compound="COC(=O)CCC(C)[C@H]1CCC2C3C(C[C@H](OC(C)=O)[C@@]21C)[C@@]1(C)CCC2(C[C@H]1C[C@H]3OC(C)=O)OOC1(CCCCCCC1)OO2 (stereo not given in full)" assay_result="23.3 µM (inactive)"
compound=Nc1cc(-c2ccc(Cl)cc2)nn1-c1nc2ccccc2nc1-c1ccccc1 assay_result="80.7 µM (inactive)"
compound="CC(C)(C)OC(=O)NC(Cc1ccc(O)cc1)C(=O)NC(CCCCN)C(=O)O (stereo not drawn) (Boc-Tyr-Lys-OH; configuration not given here)" assay_result="19.9 µM (inactive)"
compound=O=[N+]([O-])c1ccc2c(c1)Cc1cc(/N=C/c3ccc4c(c3)OCO4)ccc1-2 assay_result="> 100 µM (inactive)"

Incoming: Give GI50 for COc1cccc(Nc2nc(C)c([N+](=O)[O-])c(Nc3cccc(OC)c3)n2)c1
Outgoing: 54.3 µM (inactive)

Incoming: Give GI50 for CCCC(=O)NC1=C(Cl)C(=O)c2ccccc2C1=O
Outgoing: 10.8 µM (inactive)

Incoming: Give GI50 for O=C1/C(=C/c2cc(O)c(O)c(O)c2)Oc2cc(O)cc(OC3OC(CO)C(O)C(O)C3O)c21 (stereo not given)
Outgoing: 17.3 µM (inactive)

Incoming: Give GI50 for CCOC(=O)/C=C(/C(=O)OCC)n1cnc2c(=O)[nH]c(NC(C)=O)nc21
Outgoing: > 100 µM (inactive)

Incoming: Give GI50 for CC1(C)CC(=O)C(C(=O)Nc2cccs2)=C(O)C1
Outgoing: 39.4 µM (inactive)

Incoming: Give GI50 for Cc1ccc(NC(=O)CCC/C(CC(=O)c2ccc(Br)cc2)=N/NC(=O)CC#N)cc1
Outgoing: > 100 µM (inactive)

Incoming: Give GI50 for CC(=O)OC1CC2C(C)(C)C(=O)C=C[C@]2(C)C2CCC3(C)C(c4ccoc4)[C@@H](O)[C@H]4O[C@]43[C@]12C (stereo not given in full)
Outgoing: 18.6 µM (inactive)

====

Tested on: RXF 631
Experiment: NCI tumour cell line growth inhibition, 48 h
Active and inactive are the calls of the source. Cut-off read from the data, not from the text of the source: active = GI50 up to about 1.1 µM and inactive = higher.
MEASURED_ATTRIBUTE: GI50

Some entries whose results are on file:
molecule="N#CC(C#N)=C1NC(=O)C(c2ccccc2)C(=O)N1 (stereo not given)" assay_result="> 100 µM (inactive)"
molecule=CCCCNCC(=O)O[C@]1(CC)C(=O)OCc2c1cc1n(c2=O)Cc2cc3ccccc3nc2-1 assay_result="1.7 µM (inactive)"
molecule=COc1ccc(CN2C(=O)[C@@H]3Cc4c(OC)c(C)c(OC)c(OC)c4[C@H](/C2=C\c2cc(OC)c(OC)c(C)c2OC)N3C(=O)OC(C)C)cc1 assay_result="> 100 µM (inactive)"
molecule="CCOC(=O)C1(C/C=C(/C)Cl)CCCC1=O (stereo not given)" assay_result="95.1 µM (inactive)"
molecule=COc1ccccc1NC(=O)CC(=O)n1nc(C)c(/N=N/c2ccccc2Cl)c1C assay_result="> 31.6 µM (inactive)"

Incoming: Give GI50 only, for CCCCCCCCCCCCCCCCCCN(C)C(COC)COP(=O)([O-])OCC[N+](C)(C)C (stereo not given) , using RXF 631 data.
Outgoing: 6.85 µM (inactive)

Incoming: Give GI50 only, for CN(C)C(=S)/N=c1\ssc(=S)n1C1CCCCC1 , using RXF 631 data.
Outgoing: 19.5 µM (inactive)

Incoming: Give GI50 only, for O=C1/C(=C/c2ccc(Cl)c(Cl)c2)CN(C(=O)CCN2CCOCC2)C/C1=C\c1ccc(Cl)c(Cl)c1 , using RXF 631 data.
Outgoing: 2.94 µM (inactive)

Incoming: Give GI50 only, for N#C/C(=C\c1cccc(Cl)c1Cl)c1ccccc1 , using RXF 631 data.
Outgoing: 50 µM (inactive)

Incoming: Give GI50 only, for Nn1c(-c2cccc(Cl)c2)nc2ccccc2c1=O , using RXF 631 data.
Outgoing: > 100 µM (inactive)

====

Tested on: SW-620
Test: NCI tumour cell line growth inhibition, 48 h
Calls of active or inactive are those of the source. No stated cut-off is given here; in the data, active = GI50 up to about 1.1 µM and inactive = higher.
Choose one outcome from this list and give only that: yes (1) (active), no (0) (inactive)

Sample answers from the record:
compound="Cn1cc2c3ccccc3nc-2c2ccccc21 [ISOCRYPTOLEPINE]" class_name="no (0)"
compound=CC(=O)/C=C1\CC(=O)Nc2ccccc2N1 class_name="no (0)"
compound="CC(C)N(C(=O)C12C3C4C5C3C1(C(=O)N(C(C)C)C(C)C)C5C42)C(C)C (stereo not given)" class_name="no (0)"
compound=S=C(N/N=C\C=N/NC(=S)N1CCCCC1)N1CCCCC1 class_name="yes (1)"
compound="COc1cc(/C=C2\\CC3C4CC[C@H]5C[C@@H](O)CC[C@]5(C)C4CC[C@]3(C)C2=O)cc(OC)c1OC (stereo not given in full)" class_name="no (0)"
compound="Clc1ccc(CSc2ncnc3c2ncn3C2CCCCO2)cc1 (stereo not given)" class_name="no (0)"
compound=CN(C)Cc1cc(C(=O)/C=C/c2ccc(Cl)cc2)cc(CN(C)C)c1O class_name="no (0)"
compound="COc1ccc(-n2c(Cn3nnc(-c4cccnc4)n3)nn(C3OC(COC(=O)c4ccccc4)C(OC(=O)c4ccccc4)C3OC(=O)c3ccccc3)c2=S)cc1 (stereo not given)" class_name="no (0)"
compound=COc1ccc2nc3ccccc3c(NCCCCCCN(C)CCCl)c2c1 class_name="yes (1)"

Incoming: How was CNC(=O)NCCCCC(NC(C)=O)C(=O)NCc1ccccc1 (stereo not given) classified in this test?
Outgoing: no (0)

====

Tested on: 786-0
Assay: NCI tumour cell line growth inhibition, 48 h
Activity calls are given as the source filed them. Rule as the data show it: active = GI50 up to about 1.1 µM and inactive = higher.
Choose one outcome from this list and give only that: true (1) (active), false (0) (inactive)

Sample answers from the record:
molecule="COc1cc2nc3n(c2cc1OC)C(O)c1c(Cl)nc(SC)nc1S3 (stereo unspecified)" target=786-0 class_name="false (0)"
molecule="CCCCCCCCC[C@@H]1CC(=O)OCC2OC(O[C@H](CCCCCCCCC)CC(=O)OCC3OC(O[C@H](CCCCCCCCC)CC(=O)OCC4OC(O1)C(O)C(O)C4O)C(O)C(O)C3O)C(O)C(O)C2O (stereo partly specified)" target=786-0 class_name="true (1)"

Incoming: How was C/N=C(\N=c1/ss/c(=N\C)n1C)N(C)C.[O-][Cl+3]([O-])([O-])O classified in this test?
Outgoing: false (0)

Incoming: How was CCCCCCCCCCCCCCCC[N+](C)(C)CCl classified in this test?
Outgoing: false (0)

Incoming: How was Cc1ccc(-n2nc(C(OC3OC(CO)C(O)C(O)C3O)C(O)CO)c3nc4cc(C)c(C)cc4nc32)cc1 (stereo unspecified) classified in this test?
Outgoing: false (0)

Incoming: How was C=C(C)C1CCC2(C)C1CCC1(C)C2CCC2C3(C)C4OC(OC4=O)C(C)(C)C3CCC21C (stereo unspecified) classified in this test?
Outgoing: false (0)

====

Test system: HCT-116
Experiment: NCI tumour cell line growth inhibition, 48 h
The source made the active and inactive calls. Rule as the data show it: active = GI50 up to about 1.1 µM and inactive = higher.
MEASURED_ATTRIBUTE: GI50

Some entries whose results are on file:
compound=N#Cc1c(OCCF)c2ccccc2n2c1nc1ccccc12 assay_result="11.2 µM (inactive)"
compound=Cc1ccc(C2=C(Cl)C(=O)C(c3ccc(C)cc3)=C(Cl)C2=O)cc1 assay_result="> 100 µM (inactive)"
compound="COC(=O)c1cccc(C)c1C1CN=NC12Cc1c(ccc(C)c1C)C2=O (stereo not drawn)" assay_result="22.5 µM (inactive)"

Incoming: Give GI50 for COC(=O)[C@@H](COC(=O)/C=C/c1ccc(OC(C)=O)c(OC(C)=O)c1)NC(=O)/C=C/c1ccc(OC(C)=O)c(OC(C)=O)c1
Outgoing: 16 µM (inactive)

Incoming: Give GI50 for CCC1(c2ccc(N3C(=O)c4ccccc4C3=O)cc2)CCC(=O)NC1=O (stereo not drawn)
Outgoing: > 10 µM (inactive)

Incoming: Give GI50 for COS(C)(=O)=O [METHANESULFONIC ACID METHYL ESTER]
Outgoing: > 2 µM (inactive)

====

Test system: SNB-19
Assay: NCI tumour cell line growth inhibition, 48 h
The source made the active and inactive calls. Rule as the data show it: active = GI50 up to about 1.1 µM and inactive = higher.
MEASURED_ATTRIBUTE: GI50

molecule="OCCCCCCCCCCCOc1ccc(C2OCC3(CO2)COC(c2ccc(OCCCCCCCCCCCO)cc2)OC3)cc1 (stereo not drawn)" measured_attribute=GI50 assay_result="> 50 µM (inactive)"
molecule=N#Cc1c(OCCF)c2ccccc2n2c1nc1ccccc12 measured_attribute=GI50 assay_result="29.2 µM (inactive)"
molecule=Cc1cc(C)nc(NS(=O)(=O)c2ccc(NNC(=O)c3cccc4c(=O)c5ccccc5[nH]c34)cc2)n1 measured_attribute=GI50 assay_result="88.5 µM (inactive)"
molecule=CC(C)=CCOc1ccc(-c2coc3cc4c(c(O)c3c2=O)C=CC(C)(C)O4)cc1 measured_attribute=GI50 assay_result="56 µM (inactive)"
molecule=O=C(O)CCC(=O)Oc1ccc(O)c2c1CCCC2=O measured_attribute=GI50 assay_result="> 100 µM (inactive)"
molecule=Cc1cc2c(cc1Cl)SC(N/N=C(\N)c1ccc(Cl)cc1)=NS2(=O)=O measured_attribute=GI50 assay_result="77.4 µM (inactive)"
molecule=O=[N+]([O-])C(=C(Nc1cccc2cccnc12)Nc1cccc2cccnc12)C(Cl)=C(Cl)Cl measured_attribute=GI50 assay_result="> 96.2 µM (inactive)"
molecule=C/N=C(\N=c1/ss/c(=N\C)n1C)N(C)C.[O-][Cl+3]([O-])([O-])O measured_attribute=GI50 assay_result="> 100 µM (inactive)"

Moving on to another molecule below.
Incoming: Give GI50 for COc1cc2c(cc1OC)C1C=NC(C(=O)O)(C2)c2ccccc21 (stereo not drawn)
Outgoing: > 100 µM (inactive)

Reference source for all entries: ChEMBL document CHEMBL1201862
